Test system: Hepatitis C virus
Experiment: Antiviral activity against HCV 1b-N
Assay type: functional, organism-based, Hepacivirus hominis
Details: genotype 1b strain N
pEC50: −log10 of the molar value.
Assay Endpoint: pEC50

[[record]]
smiles_string = "NC(=O)COc1ccc2c(c1)S(=O)(=O)N=C(c1c(O)c3ccccc3n(NC3CCC3)c1=O)N2"
readout_number = 7.15

[[record]]
smiles_string = "COc1ccc2c(O[C@@H]3C[C@H]4C(=O)N[C@]5(C(=O)O)C[C@H]5/C=C\\CCCCC[C@H](NC(=O)OC5CCCC5)C(=O)N4C3)cc(-c3csc(NC(C)C)n3)nc2c1"
readout_number = 8.40

